Documented pIC50 across a set of molecules
Test system: P. falciparum 3D7-infected erythrocytes
Experiment: Plasmodium falciparum growth inhibition assay (SYBR Green I, flow cytometry), drug-sensitive strain
Assay type: cell-based
Details: Plasmodium falciparum, 3D7, Erythrocyte; 48 h incubation; mean ± SD, n ≥ 2; read-out: Pf3D7 IC50
pIC50: −log10 of the molar value. Where a name gives a salt, the structure may show the parent alone.
measurement_name: pIC50

INSERT INTO measurements (molecule, measured_value) VALUES
  ('CCc1nc(N)nc(N)c1OCCCOc1ccccc1/C=C/C(=O)NO.Cl [13·HCl]', 10.09),
  ('CCc1nc(N)nc(N)c1OCCCCOc1ccccc1CCC(=O)NO [3·HCl]', 9.35),
  ('CCc1nc(N)nc(N)c1OCCCOc1cc(C(=O)NO)ccc1Cl', 9.76),
  ('CCc1nc(N)nc(N)c1OCCCOc1cccc(C(=O)NOCc2ccccc2)c1', 8.32),
  ('CCc1nc(N)nc(N)c1OCCCOc1cccc(C(=O)NCCCCCCC(=O)NO)c1', 9.06),
  ('CCc1nc(N)nc(N)c1OCCCOc1cc(C(=O)NO)ccc1F', 9.41),
  ('CCc1nc(N)nc(N)c1OCCCOc1ccc(C(=O)NCCCCCCC(=O)NO)cc1', 9.39),
  ('CCc1nc(N)nc(N)c1OCCCOc1cccc(C(=O)NOCc2ccc(OC(C)=O)cc2)c1', 8.99),
  ('CCc1nc(N)nc(N)c1OCCOc1ccccc1CCC(=O)NO.Cl [2·HCl]', 7.94),
  ('CCc1nc(N)nc(N)c1OCCOc1cccc(/C=C/C(=O)NO)c1 [18·HCl]', 9.60),
  ('CCc1nc(N)nc(N)c1OCCCOc1cccc(C(=O)NO)c1.Cl [8·HCl]', 9.07),
  ('CCc1nc(N)nc(N)c1OCCCOc1cccc(/C=C/C(=O)NO)c1 [19·HCl]', 9.76),
  ('CCc1nc(N)nc(N)c1OCCCOc1ccccc1CCC(=O)NO.Cl [1·HCl]', 9.77),
  ('CCc1nc(N)nc(N)c1OCCCOc1cccc(COc2cccc(/C=C/C(=O)NO)c2)c1 [Compound 21, hydrochloride]', 9.46),
  ('CCc1nc(N)nc(N)c1OCCCOc1cc(OC)ccc1CCC(=O)NO [4·HCl]', 9.76),
  ('CCc1nc(N)nc(N)c1OCCCOc1ccccc1CCC(=O)NOCc1ccccc1', 9.30),
  ('CCc1nc(N)nc(N)c1OCCCOc1ccc(/C=C/C(=O)NO)cc1 [20·HCl]', 9.93);
